pIC50 listing for selected compounds.
Measurement Protocol: Inhibition of Saccharomyces cerevisiae FTase
pIC50: −log10 of the molar value.

Compound: CC(C)C[C@H](N)C(=O)Nc1ccc(NC(=O)/C=C/c2ccc(-c3ccc([N+](=O)[O-])cc3)o2)cc1C(=O)c1ccccc1
pIC50: 6.44
--
Compound: O=C(/C=C/c1ccc(-c2ccc([N+](=O)[O-])cc2)o1)Nc1ccc(NC(=O)C(c2ccccc2)N2CCN(CCO)CC2)c(C(=O)c2ccccc2)c1 (stereo not drawn)
pIC50: 6.37
--
Compound: CN1CCN(C(C(=O)Nc2ccc(NC(=O)/C=C/c3ccc(-c4ccc([N+](=O)[O-])cc4)o3)cc2C(=O)c2ccccc2)c2ccccc2)CC1 (stereo not drawn)
pIC50: 8.00

Source: ChEMBL document CHEMBL1139470
